- assay.text: Inhibition of bovine brain PDE1 using fluorescent labeled cGMP as substrate after 15 mins by IMAP assay
- Parameters: species or system Bos taurus
endpoint.name: pKi
Answers are plain numbers, as −log10 of the molar value.

Take a look at these entries with their results.
• CC(C)CNc1c2c(nn1Cc1ccc(-c3cccc(F)n3)cc1)N1C(=N[C@@H]3CCC[C@@H]31)N(C)C2=O = 8.13
• C[C@@H]1CN2C(=N1)N(C)C(=O)c1c2nn(Cc2ccc(-c3ccccc3)cc2)c1Nc1ccccc1 = 8.48
• CN1C(=O)c2c(nn(Cc3ccc(S(C)(=O)=O)cc3)c2Nc2ccccc2)N2C1=N[C@@H]1CCC[C@@H]12 = 9.31
• CN1C(=O)c2c(nn(Cc3ccc(-c4ccc(F)cn4)cc3)c2Nc2ccccc2)N2C1=N[C@@H]1CCC[C@@H]12 = 10.13
• CN1Cc2c(nn(Cc3ccc(-c4ccccn4)cc3)c2Nc2ccccc2)N2C1=N[C@@H]1CCC[C@@H]12 = 7.60
• CCCC(C)Nc1c2c(nn1Cc1ccc(-c3cccc(F)n3)cc1)N1C(=N[C@@H]3CCC[C@@H]31)N(C)C2=O (some centres not stated) = 8.89

Continue with the next molecule.
Query: pKi; subject: CN1C(=N)c2c(nn(Cc3ccc(C(F)(F)F)cc3)c2Nc2ccccc2)N2C1=N[C@@H]1CCC[C@@H]12 5.55

---

Please provide measured AUC(0-inf) for the entries that follow.
- assay.text: AUC(infinity) in Sprague-Dawley rat at 9.75 mg/kg administered through oral gavage
- Format: ADME, organism-based
- Parameters: dose 9.75 mg/kg, route oral, time infinity
- test.conditions: in vivo
Give bare numbers, in ng·h/mL.

• CN1C(=O)c2c(nn(Cc3ccc(C(F)(F)F)cc3)c2Nc2ccccc2)N2C1=N[C@@H]1CCC[C@@H]12 = 214

Value sought for every listed molecule: AUC(0-inf).
1. CN1C(=O)c2c(nn(Cc3ccc(-c4ccccc4)cc3)c2Nc2ccccc2)N2C1=N[C@@H]1CCC[C@@H]12
2. CN1C(=O)c2c(nn(Cc3ccc(-c4ccccn4)cc3)c2Nc2ccccc2)N2C1=N[C@@H]1CCC[C@@H]12
3. CN1C(=O)c2c(nn(Cc3ccc(-c4cccc(F)n4)cc3)c2Nc2ccccc2)N2C1=N[C@@H]1CCC[C@@H]12.O=P(O)(O)O [LENRISPODUN PHOSPHATE]
4. CN1C(=O)c2c(nn(Cc3ccc(C(F)(F)F)cc3)c2Nc2ccc(F)cc2)N2C1=N[C@@H]1CCC[C@@H]12

816
636
802
164

---

- target.entity: High affinity cGMP-specific 3',5'-cyclic phosphodiesterase 9A (Homo sapiens, UniProt O76083)
- Sequence (O76083 whole entry): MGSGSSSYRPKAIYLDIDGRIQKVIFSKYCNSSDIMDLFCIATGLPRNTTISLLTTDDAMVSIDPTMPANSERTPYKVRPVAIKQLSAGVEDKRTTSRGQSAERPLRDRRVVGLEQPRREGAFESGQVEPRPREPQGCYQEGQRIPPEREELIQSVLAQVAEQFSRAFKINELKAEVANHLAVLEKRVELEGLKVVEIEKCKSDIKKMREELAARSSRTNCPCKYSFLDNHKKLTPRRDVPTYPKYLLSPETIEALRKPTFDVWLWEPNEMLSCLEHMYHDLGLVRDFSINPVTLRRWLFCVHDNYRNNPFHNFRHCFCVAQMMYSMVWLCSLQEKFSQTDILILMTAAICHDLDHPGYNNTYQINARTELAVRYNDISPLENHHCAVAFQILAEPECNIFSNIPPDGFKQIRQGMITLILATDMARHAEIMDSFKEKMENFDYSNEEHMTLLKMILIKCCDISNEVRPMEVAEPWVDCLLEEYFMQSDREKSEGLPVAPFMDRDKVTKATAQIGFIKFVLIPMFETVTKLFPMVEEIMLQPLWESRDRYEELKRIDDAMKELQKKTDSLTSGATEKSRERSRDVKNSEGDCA
- assay.text: Inhibition of recombinant full lenght human PDE9A using fluorescent labeled cGMP as substrate after 15 mins by IMAP assay
endpoint.name: pKi
Answers are plain numbers, as −log10 of the molar value.

• CN1C(=O)c2c(nn(Cc3ccc(C(F)(F)F)cc3)c2Nc2ccccc2)N2C1=N[C@@H]1CCC[C@@H]12 = 4.30

The record that follows has no pKi shown yet.
Look up pKi: CN1C(=O)c2c(nn(Cc3ccc(-c4ccccn4)cc3)c2Nc2ccccc2)N2C1=N[C@@H]1CCC[C@@H]12 5.21

---

- assay.text: Inhibition of bovine brain PDE1 using fluorescent labeled cGMP as substrate after 15 mins by IMAP assay
- Set-up: species or system Bos taurus
Please respond with reported pKi for every item in the list.
Give bare numbers, as −log10 of the molar value.

* CN1C(=O)c2c(nn(Cc3ccc(-c4ccccc4)cc3)c2Nc2ccccc2)N2C1=N[C@@H]1CCC[C@@H]12 | 9.07
* C[C@H]1CN=C2N(C)C(=O)c3c(nn(Cc4ccc(-c5ccccc5)cc4)c3Nc3ccccc3)N21 | 8.10
* CN1C(=O)c2c(nn(Cc3ccc(-c4cccc(F)n4)cc3)c2Cc2ccc(F)cc2)N2C1=N[C@@H]1CCC[C@@H]12 | 8.64

We next turn to a different molecule, shown below.
Which pKi value is on record for CN1C(=O)c2c(nn(Cc3ccc(-c4ccccc4)cc3)c2Nc2ccccc2)N2CC(C)(C)CN=C12 ? 8.32

---

- assay.text: Inhibition of bovine brain PDE1 using fluorescent labeled cGMP as substrate after 15 mins by IMAP assay
- Parameters: species or system Bos taurus
Give Ki for every item shown.
Answers are plain numbers, in nM.

List the reported Ki of each molecule below.
1. CN1C(=O)c2c(Nc3ccccc3)nn(CC3CCCC3)c2N2C1=N[C@@H]1CCC[C@@H]12
2. CN1C(=O)c2c(nn(Cc3ccc(-c4ccccn4)cc3)c2Nc2ccccc2)N2C1=N[C@@H]1CCC[C@@H]12
3. CN1C(=O)c2c(nn(Cc3ccc(-c4ncccc4F)cc3)c2Nc2ccccc2)N2C1=N[C@@H]1CCC[C@@H]12
4. CN1C(=O)c2c(nn(Cc3ccc(-c4cccc(F)n4)cc3)c2Sc2ccccc2)N2C1=N[C@@H]1CCC[C@@H]12

1. 770
2. 0.085
3. 0.073
4. 5.2

---

- assay.text: Tmax in Sprague-Dawley rat at 9.75 mg/kg administered through oral gavage
- Type: ADME, organism-based
- test.conditions: in vivo
Record form. Attribute: Tmax. Fill in for each entry.
Write down the value, and be sure its unit follows.

Dear colleague, could you send me Tmax for each of the items below? Thanks.
1. CN1C(=O)c2c(nn(Cc3ccc(C(F)(F)F)cc3)c2Nc2ccccc2)N2C1=N[C@@H]1CCC[C@@H]12
2. CN1C(=O)c2c(nn(Cc3ccc(-c4cccc(F)n4)cc3)c2Nc2ccccc2)N2C1=N[C@@H]1CCC[C@@H]12.O=P(O)(O)O [LENRISPODUN PHOSPHATE]
3. CN1C(=O)c2c(nn(Cc3ccc(C(F)(F)F)cc3)c2Nc2ccc(F)cc2)N2C1=N[C@@H]1CCC[C@@H]12

15 min
45 min
30 min

Look up Tmax for the entries below, preserving their order.
1. CN1C(=O)c2c(nn(Cc3ccc(-c4ccccc4)cc3)c2Nc2ccccc2)N2C1=N[C@@H]1CCC[C@@H]12
2. CN1C(=O)c2c(nn(Cc3ccc(-c4ccccn4)cc3)c2Nc2ccccc2)N2C1=N[C@@H]1CCC[C@@H]12

240 min
30 min

---

- assay.text: Cmax in C57BL/6 mouse brain at 10 mg/kg administered through oral gavage
- Type: ADME, organism-based
- Parameters: dose 10 mg/kg, route oral
endpoint.name: Cmax

- CN1C(=O)c2c(nn(Cc3ccc(C(F)(F)F)cc3)c2Nc2ccc(F)cc2)N2C1=N[C@@H]1CCC[C@@H]12: 0.133 µg/mL
- CN1C(=O)c2c(nn(Cc3ccc(-c4ccccc4)cc3)c2Nc2ccccc2)N2C1=N[C@@H]1CCC[C@@H]12: 0.474 µg/mL
- CN1C(=O)c2c(nn(Cc3ccc(-c4cccc(F)n4)cc3)c2Oc2ccc(F)cc2)N2C1=N[C@@H]1CCC[C@@H]12: 0.064 µg/mL

For each entry beneath this line, provide reported Cmax.
1. CN1C(=O)c2c(nn(Cc3ccc(-c4cccc(F)n4)cc3)c2Cc2ccc(F)cc2)N2C1=N[C@@H]1CCC[C@@H]12
2. CN1C(=O)c2c(nn(Cc3ccc(-c4cccc(F)n4)cc3)c2Nc2ccccc2)N2C1=N[C@@H]1CCC[C@@H]12.O=P(O)(O)O [LENRISPODUN PHOSPHATE]
3. CN1C(=O)c2c(nn(Cc3ccc(S(N)(=O)=O)cc3)c2Nc2ccccc2)N2C1=N[C@@H]1CCC[C@@H]12
4. CN1C(=O)c2c(nn(Cc3ccc(-c4cccc(F)n4)cc3)c2Sc2ccccc2)N2C1=N[C@@H]1CCC[C@@H]12
5. CN1C(=O)c2c(nn(Cc3ccc(C(F)(F)F)cc3)c2Nc2ccccc2)N2C1=N[C@@H]1CCC[C@@H]12
6. CN1C(=O)c2c(nn(Cc3ccc(-c4cccc(F)n4)cc3)c2Cc2ccccc2)N2C1=N[C@@H]1CCC[C@@H]12
7. CN1C(=O)c2c(nn(Cc3ccc(-c4ccccn4)cc3)c2Nc2ccccc2)N2C1=N[C@@H]1CCC[C@@H]12

["0.081 µg/mL", "0.387 µg/mL", "0.016 µg/mL", "0.071 µg/mL", "0.285 µg/mL", "0.101 µg/mL", "0.028 µg/mL"]

Quick one: Cmax of CN1C(=O)c2c(nn(Cc3ccc(-c4cccc(F)n4)cc3)c2Oc2ccccc2)N2C1=N[C@@H]1CCC[C@@H]12 ? 0.17 µg/mL

---

Kindly supply the reported half-life values for the records listed here.
- assay.text: Half time in Sprague-Dawley rat at 9.75 mg/kg administered through oral gavage
- Assay type: ADME, organism-based
- test.conditions: in vivo
Give bare numbers, in h.

• CN1C(=O)c2c(nn(Cc3ccc(-c4ccccn4)cc3)c2Nc2ccccc2)N2C1=N[C@@H]1CCC[C@@H]12 = 1.5
• CN1C(=O)c2c(nn(Cc3ccc(C(F)(F)F)cc3)c2Nc2ccccc2)N2C1=N[C@@H]1CCC[C@@H]12 = 1.5

Each compound below has a recorded value; state its half-life.
1. CN1C(=O)c2c(nn(Cc3ccc(-c4ccccc4)cc3)c2Nc2ccccc2)N2C1=N[C@@H]1CCC[C@@H]12
2. CN1C(=O)c2c(nn(Cc3ccc(-c4cccc(F)n4)cc3)c2Nc2ccccc2)N2C1=N[C@@H]1CCC[C@@H]12.O=P(O)(O)O [LENRISPODUN PHOSPHATE]
3. CN1C(=O)c2c(nn(Cc3ccc(C(F)(F)F)cc3)c2Nc2ccc(F)cc2)N2C1=N[C@@H]1CCC[C@@H]12

1: 3.1; 2: 1.5; 3: 2.2
